All values here come from patent US5498780A.

Test system: murine P388 leukemia cell
Experiment: Antitumor effect on murine P388 leukemia cell
Format: in vivo, murine; male CDF1 mice
Conditions: P388; Table 9 test lot
MEASURED_QUANTITY: TI (therapeutic index, LD50 value/ILS50 value)

# COMPOUND, TEST_RESULT
measured = [
    ("N.NOC1CCCCC1.[Cl][Pt][Cl]", "> 22.1"),
    ("N.N.O=C([O-])C1(C(=O)[O-])CCC1.[Pt+2] [Carboplatin, carboplatin, reference compound]", 20.2),
    ("CC(C)(C)ON.N.[Cl][Pt][Cl]", "> 22.1"),
]

Would you kindly look at the next entry?
Give the reported TI (therapeutic index, LD50 value/ILS50 value) for this compound. CCCO[NH][Pt]([NH2])([Cl])[Cl]
> 22.0

###

System: murine L1210 leukemia cell
Test: Antitumor effect on murine L1210 leukemia cell (increase in life-span of inoculated mice)
Format: in vivo, murine; male CDF1 mice
Details: L1210, i.p. once a day for 5 days; Table 5 test lot
MEASURED_QUANTITY: dose corresponding to ILSmax
Returns: string containing the number followed by the unit.

Worked cases, answers included:
# MOLECULE, dose corresponding to ILSmax
measured = [
    ("CCCO[NH][Pt]([NH2])([Cl])[Cl]", "4.0 mg/kg"),
    ("CC(C)(C)ON.N.[Cl][Pt][Cl]", "8.0 mg/kg"),
    ("CCO[NH][Pt]([Cl])([Cl])[NH]C(C)C", "8.0 mg/kg"),
    ("N.N.O=C([O-])C1(C(=O)[O-])CCC1.[Pt+2] [Carboplatin, carboplatin, reference compound]", "64.0 mg/kg"),
]

Give dose corresponding to ILSmax for each of the items listed below.
1. N.N.[Cl][Pt][Cl] [Cisplatin, cisplatin, reference compound]
2. N.NOC1CCCCC1.[Cl][Pt][Cl]

["4.0 mg/kg", "4.0 mg/kg"]

###

Tested on: murine L1210 leukemia cell
Assay: Antitumor effect on murine L1210 leukemia cell (increase in life-span of inoculated mice)
Type: in vivo, murine; male CDF1 mice
Settings: L1210, i.p. once a day for 5 days, 30 days observation; Table 5 test lot
MEASURED_QUANTITY: ILSmax (maximum percent increase in life-span) (%)
Answers are plain numbers, in %.

Worked cases, answers included:
# MOLECULE, TEST_RESULT
rows = [
    ("CCO[NH][Pt]([Cl])([Cl])[NH]C(C)C [Compound No. 12]", 102.5),
    ("N.NOC1CCCCC1.[Cl][Pt][Cl] [Compound No. 9]", 108.8),
    ("N.N.[Cl][Pt][Cl] [Cisplatin, cisplatin, reference compound]", 90.0),
]

Would you kindly look at the next entry?
Give the reported ILSmax (maximum percent increase in life-span) for this molecule. N.N.O=C([O-])C1(C(=O)[O-])CCC1.[Pt+2] [Carboplatin, carboplatin, reference compound]
72.5

###

Tested on: murine L1210 leukemia cell
Assay: Antitumor effect on murine L1210 leukemia cell (increase in life-span of inoculated mice)
Assay type: in vivo, murine; male CDF1 mice
Details: L1210; Table 5 test lot
MEASURED_QUANTITY: TI (therapeutic index, LD50 value/ILS50 value)
Answers are plain numbers.

# COMPOUND, TEST_RESULT
measured = [
    ("N.NOC1CCCCC1.[Cl][Pt][Cl]", 17.0),
]

Give TI (therapeutic index, LD50 value/ILS50 value) for each of the items listed below.
1. N.N.O=C([O-])C1(C(=O)[O-])CCC1.[Pt+2] [Carboplatin, carboplatin, reference compound]
2. CCO[NH][Pt]([Cl])([Cl])[NH]C(C)C

1: 7.2; 2: 14.7

Give TI (therapeutic index, LD50 value/ILS50 value) for each of the items listed below.
1. CC(C)(C)ON.N.[Cl][Pt][Cl]
2. CCCO[NH][Pt]([NH2])([Cl])[Cl]

1. 14.7
2. 13.8

###

System: murine L1210 leukemia cell
Assay: Antitumor effect on murine L1210 leukemia cell (increase in life-span of inoculated mice)
Type: in vivo, murine; male CDF1 mice
Details: L1210, i.p. once a day for 5 days, linear regression; Table 4 test lot
Consider the following compounds; for each one, report its ILS50 (dose which shows 50% of the ILS value by 5 administrations).
Answers are plain numbers, in mg/kg.

Give ILS50 (dose which shows 50% of the ILS value by 5 administrations) for each of the items listed below.
1. N.N.O=C([O-])C1(C(=O)[O-])CCC1.[Pt+2] [Carboplatin, carboplatin, reference compound]
2. N.ONC1CCCCC1.[Cl][Pt][Cl] [Compound No. 4]

[41.0, 2.1]

Give ILS50 (dose which shows 50% of the ILS value by 5 administrations) for each of the items listed below.
1. N.N.[Cl][Pt][Cl] [Cisplatin, cisplatin, reference compound]
2. CCON.N.[Cl][Pt][Cl] [Compound No. 5]

1: 1.3; 2: 0.9

###

Test system: murine P388 leukemia cell
Test: Antitumor effect on murine P388 leukemia cell
Type: in vivo, murine; male CDF1 mice
Details: P388; Table 8 test lot
Method: Murine L1210 leukemia cells (1×10^5 cells) were inoculated peritoneally into six-week-old male CDF1 mice on day 0. From the next day after the inoculation, a drug (the compound of the invention or a compound for comparison) was administered peritoneally once a day for 5 days. After 30 days of observation, the percent increase in life-span (ILS) was calculated as follows: […] T: mean survival days of the drug-treated group C: mean survival days of control group […]
Consider the following compounds; for each one, report its TI (therapeutic index, LD50 value/ILS50 value).
One number for each entry.

# COMPOUND, TEST_RESULT
records = [
    ("N.N.O=C([O-])C1(C(=O)[O-])CCC1.[Pt+2] [Carboplatin, carboplatin, reference compound]", 23.3),
]

Give TI (therapeutic index, LD50 value/ILS50 value) for each of the items listed below.
1. CCON.N.[Cl][Pt][Cl]
2. N.ONC1CCCCC1.[Cl][Pt][Cl]

1: 36.8; 2: 80.2

###

Consider the following compounds; for each one, report its TI (therapeutic index, LD50 value/ILS50 value).
Test system: cisplatin-resistant murine L1210 leukemia cell (L1210/DDP)
Assay: Antitumor effect on cisplatin-resistant murine L1210 leukemia cell (L1210/DDP)
Type: in vivo, murine; male CDF1 mice
Conditions: Table 7 test lot

Worked cases, answers included:
# COMPOUND, SUBJECT_OF_TEST, TEST_RESULT
rows = [
    ("CCCO[NH][Pt]([NH2])([Cl])[Cl] [Compound No. 8]", "cisplatin-resistant murine L1210 leukemia cell (L1210/DDP)", "> 22.0"),
    ("N.NOC1CCCCC1.[Cl][Pt][Cl] [Compound No. 9]", "cisplatin-resistant murine L1210 leukemia cell (L1210/DDP)", "> 22.1"),
]

Give TI (therapeutic index, LD50 value/ILS50 value) for each of the items listed below.
1. CC(C)(C)ON.N.[Cl][Pt][Cl] [Compound No. 7]
2. CCO[NH][Pt]([Cl])([Cl])[NH]C(C)C [Compound No. 12]

> 22.1
> 22.1

###

Tested on: murine P388 leukemia cell
Assay: Antitumor effect on murine P388 leukemia cell
Format: in vivo, murine; male CDF1 mice
Conditions: P388, i.p. once a day for 5 days; Table 8 test lot
MEASURED_QUANTITY: dose corresponding to ILSmax

Worked cases, answers included:
# COMPOUND, SUBJECT_OF_TEST, dose corresponding to ILSmax
measured = [
    ("CON.N.[Cl][Pt][Cl] [Compound No. 2]", "murine P388 leukemia cell", "4.0 mg/kg"),
    ("N.NC1CCCCC1.[Cl][Pt][Cl] [Comparative drug A, reference compound]", "murine P388 leukemia cell", "4.0 mg/kg"),
    ("N.ONC1CCCCC1.[Cl][Pt][Cl] [Compound No. 4]", "murine P388 leukemia cell", "16.0 mg/kg"),
    ("CNO.N.[Cl][Pt][Cl] [Compound No. 1]", "murine P388 leukemia cell", "4.0 mg/kg"),
]

Give dose corresponding to ILSmax for each of the items listed below.
1. CCON.N.[Cl][Pt][Cl] [Compound No. 5]
2. N.N.[Cl][Pt][Cl] [Cisplatin, cisplatin, reference compound]
3. N.N.O=C([O-])C1(C(=O)[O-])CCC1.[Pt+2] [Carboplatin, carboplatin, reference compound]

["4.0 mg/kg", "4.0 mg/kg", "16.0 mg/kg"]

###

Tested on: murine P388 leukemia cell
Assay: Antitumor effect on murine P388 leukemia cell
Format: in vivo, murine; male CDF1 mice
Details: P388, i.p. once a day for 5 days, linear regression; Table 8 test lot
Consider the following molecules; for each one, report its ILS50 (dose which shows 50% of the ILS value by 5 administrations).

# MOLECULE, TEST_RESULT
records = [
    ("N.N.O=C([O-])C1(C(=O)[O-])CCC1.[Pt+2] [Carboplatin, carboplatin, reference compound]", "10.5 mg/kg"),
]

Give ILS50 (dose which shows 50% of the ILS value by 5 administrations) for each of the items listed below.
1. N.N.[Cl][Pt][Cl] [Cisplatin, cisplatin, reference compound]
2. N.ONC1CCCCC1.[Cl][Pt][Cl]
3. CCON.N.[Cl][Pt][Cl]
4. CNO.N.[Cl][Pt][Cl]

< 0.5 mg/kg
1.1 mg/kg
0.6 mg/kg
< 0.5 mg/kg

Give ILS50 (dose which shows 50% of the ILS value by 5 administrations) for each of the items listed below.
1. N.NC1CCCCC1.[Cl][Pt][Cl] [Comparative drug A, reference compound]
2. CON.N.[Cl][Pt][Cl]

["< 1.0 mg/kg", "< 0.5 mg/kg"]
